test system: Hepatitis C virus; assay: Antiviral activity against HCV genotype 1b harboring D168A mutant infected in human Huh7 cells incubated for 96 hrs by luciferase assay; format: functional, organism-based, Hepacivirus hominis; settings: subtype 1b, Huh-7, 96 h
Parameter measured: EC50 (nM)
Enter your answer as a number in nM; do not include the unit.

Molecular string	Unit descriptor	EC50
COc1ccc2nc(O[C@@H]3C[C@H]4C(=O)N[C@]5(C(=O)NS(=O)(=O)C6(C)CC6)C[C@H]5/C=C/CCCCC[C@H](NC(=O)O[C@@H](C)C(C)C)C(=O)N4C3)c(C(F)(F)F)nc2c1	nM	3.1
COc1ccc2nc(C)c(O[C@@H]3C[C@H]4C(=O)N[C@]5(C(=O)NS(=O)(=O)C6(C)CC6)C[C@H]5/C=C/CCCCC[C@H](NC(=O)O[C@H](C)C5CC5)C(=O)N4C3)nc2c1	nM	3.7

Continue with the next compound.
QUERY: In one line, give reported EC50 of the entry COc1ccc2nc(C)c(O[C@@H]3C[C@H]4C(=O)N[C@]5(C(=O)NS(=O)(=O)C6(C)CC6)C[C@H]5/C=C/CCCCC[C@H](NC(=O)O[C@@H](C)C(C)C)C(=O)N4C3)nc2c1 .
RESULT: 3.6
